# ASSAY_PROTOCOL: protein stability index of a GFP-peptide fusion (GPS, HEK-293T) (PSI 1-6); higher = more stable;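 further: 24-mer peptide tiles fused after GFP, lentivirally expressed, FACS-sorted into six equal bins by GFP/DsRed ratio, decoded by Illumina sequencing, PSI is the read-weighted mean bin number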
# CONDITIONS: treatment: DMSO; c terminus: a fixed tail appended
Could you label it rule met if measured protein stability index is 3 or higher, and rule not met otherwise?

>>> class_label("PQERTLTLVDTGIGMTKADLINNL [HSP90AB1]")
"rule met"
>>> class_label("ESLMALCTDFCLRNLDGTLGYLLD [ZER1]")
"rule not met"
>>> class_label("TWESKNILAVSFAPLVQPSKNDNG [PCMTD1]")
"rule met"
>>> class_label("QAQQGRSSLVWLFSQLYLYSFISL [MCOLN1]")
"rule not met"
>>> class_label("MADKAKPAKAANRTPPKSPGDPSK [TPPP]")
"rule met"
>>> class_label("LVEELSPASEKKPVPPSEGKSRLS [BCL2L13]")
"rule met"
>>> class_label("KKGSNGYGFYLRAGSEQKGQIIKD [PDZK1]")
"rule met"
>>> class_label("MYDNELWAPASEGLKPGPEDGPGK [SERTAD1]")
"rule met"
>>> class_label("SDVVGRRSSLLACILLSALGYLLL [MFSD9]")
"rule met"
>>> class_label("QTEKLLQFQDLTGIESMDQCRHTL [FAF2]")
"rule met"
>>> class_label("MAAAQEADGARSAVVAAGGGSSGQ [CLPTM1]")
"rule met"
>>> class_label("VLEWGAEGVAGKSGLEKEVQRLTS [FCHSD1]")
"rule met"
>>> class_label("KINKIRWLPQQNAAYFLLSTNDKT [PPP2R2B]")
"rule not met"

----------
# ASSAY_PROTOCOL: protein stability index of a GFP-peptide fusion (GPS, HEK-293T) (PSI 1-6); higher = more stable
# CONDITIONS: treatment: DMSO; c terminus: a fixed tail appended
VALUE_TYPE: protein stability index

>>> val("QVTCSILAYLPFKLEKSIDSYYRL [PCDHGA10]")
2.79
>>> val("MRGRIYLEPPTMRKKRLLDRKVLL [GOLPH3L]")
2.34
>>> val("IKSHSSLPPNNSYADFERFSKVLE [DAPK3]")
2.81
>>> val("VAAELLNHLLESMPLREGSSFQDL [HES6]")
3.11
>>> val("RLPNRQLISCSEDGSVRIWELREK [WDR41]")
3.23
>>> val("VKSHLLDYVMTTLLFSDKNVNSNL [TRIP13]")
3.08
>>> val("MARVAWGLLWLLLGSAGAQYEKYS [P3H4]")
3.18
>>> val("LPPEKGREVAKELGLPYYETSVFD [RHOBTB1]")
3.65
>>> val("LPQTPHLEEDLKEVLRSEAGIELI [MYBL2]")
4.2
>>> val("LPCSSYIDSYDPSTGEVYCRVPNS [ALDH8A1]")
2.65
>>> val("RELLLDGGYLQRTTYDRRSSQERK [RSPH3]")
4.39
>>> val("DLLAYGAKAELPKYKSFNRTAMPY [MYOZ1]")
2.42
>>> val("PAQSHTLQANDVFHKQQWFNCIRA [NET1]")
2.71
>>> val("AGEGLPQVYYFGPCGKYNAMVLEL [CSNK1G1]")
3.19
>>> val("LRDVNHEKAMAEWVKQQAEREAEK [SDE2]")
5.19
>>> val("YSDKNAKLTKESYPVVVAESMYGD [TENT5D]")
4.39
>>> val("AMDLGFFVVMGVIGGLLGATFNCL [CLCN6]")
2.68
>>> val("HPNIITLHDIFENKTDVVLILELV [DAPK3]")
2.54
>>> val("TSPVLPSLIQLLGRNFILFIIFGT [HACD3]")
3.11
>>> val("RENMSDGDTSATESGDEVPVELYT [KMT2E]")
5.32
>>> val("AVLYPRFMGTISDVKTNVQLLKGR [CD207]")
2.49
>>> val("SSPMVQVDEKGEKVRPSHKRCIVI [LARP4]")
2.69
>>> val("YTEQELKPLTLEALGHLGNDDSAD [DLC1]")
5.43
>>> val("PRSPECRMIPGQPPASARRLSVPR [IRX6]")
4.47
>>> val("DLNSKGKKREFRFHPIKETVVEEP [INTS3]")
3
>>> val("QQGLGASYRTESAQRQACMYASSA [TBX5]")
3.8
>>> val("RQKDLKFLSEEEYWKLQIFFTNVI [CCNC]")
2.57
>>> val("VLRSWYEKNKHIFPASRWEPYDPE [FAM50A]")
2.87
>>> val("RFFACPSKATFSRNIMNLIDIVAI [KCNA3]")
2.8
>>> val("NKTLLRLRLRKERVSDVQKVLQGG [PKD2L1]")
2.65
>>> val("EDGEDFNLGDALDSSNSMQTIQKT [KRT18]")
5.44
>>> val("RPPAYSPAQRSHTYTHGLGLHRRP")
3.63
>>> val("EGNSMRCGRKLAKDGEYCWRWTGF [GMCL1]")
2.49
>>> val("ADSQITTIGNLVPQKTYSVKVLAF [PTPRD]")
2.46
>>> val("KQSLVVAVQDHGQPPLSATVTLTV [PCDHGA10]")
2.72
>>> val("PVLKRSSESMENINSGYETRRKKG [KMT2E]")
4.87
>>> val("EQKLRACLEGSINEHSAHCPHTPE [RPAIN]")
4.92
>>> val("FHGWKYMFGLVIPLGVLQAIAMYF [SLC2A12]")
2.31
>>> val("PPPPPGPPPPPGLPSDGDHQVPTT [WASL]")
5.48
>>> val("AHHPLHPHLMQEHMGTNVIVANTM [HNF4A]")
3.2
>>> val("YGQGRKIAEVCCTSIVYATEKKQT [KCTD10]")
2.83
>>> val("TFHHPTYGSCYTVDGVWTAQRPGI [SCNN1D]")
2.61
>>> val("SMTTPRCYVGATVLRGRLYAIAGY [KLHL12]")
2.14
>>> val("PAEEAGPEGGLEEPDALDDSLTSL [FOXJ1]")
5.6
>>> val("ERYRHEIAHDGQRIYVLGGGTSWT [KLHDC10]")
2.83
>>> val("ILDLLVLEQFLSILPKELQGWVRE [ZSCAN9]")
2.38
>>> val("KLATEAGVEVIVRISHTLYDLDKI [CRY1]")
2.97
>>> val("KSYPSSELRNMCDEHIASEEPAEK [CLCN6]")
5.53
>>> val("ILAAACESETRKAAKRMRLEIYQS [NOL4L]")
2.47
>>> val("VKQYLSTTLGPKLASQALTPPPGP [TFE3]")
2.92
>>> val("VVILPCQHNLCRKCASDIFQASNP [TRIM55]")
2.48
>>> val("QQTGDDDEVDDFEDFIFSHFFGDK [PBXIP1]")
4.71
>>> val("SKSADNQEYFERHRWPPVWYLKEE [RHOBTB1]")
3.4

Reference for the values: the supplement of paper PMC10567573
